# experiment summary: in vivo;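 further: mice given a single dose and followed for 14 days, with deaths tallied, LD50 derived from the doses given and the resulting death counts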
# condition details: male, C57BL/6, mouse
Where a name gives a salt, the structure may show the parent alone.
Note: every record was labeled by where its LD50 sits among zone 1 (below 6 mg/kg), zone 2 (6 mg/kg to below 100 mg/kg), zone 3 (100 mg/kg or more)

- compound: "CC[C@]1(O)C[C@H]2CN(CCc3c([nH]c4ccccc34)[C@@](C(=O)OC)(c3cc4c(cc3OC)N(C=O)[C@H]3[C@@](O)(C(=O)OC)[C@H](OC(C)=O)[C@]5(CC)C=CCN6CC[C@]43[C@@H]65)C2)C1 [Vincristine sulfate]"
  group: "zone 1"
- compound: "COc1cc([C@@H]2c3cc4c(cc3[C@@H](O[C@@H]3O[C@@H]5CO[C@@H](C)O[C@H]5[C@H](O)[C@H]3O)[C@H]3COC(=O)[C@H]23)OCO4)cc(OC)c1O [Etoposide]"
  group: "zone 2"
- compound: "O=P1(N(CCCl)CCCl)NCCCO1 (stereo not drawn) [Cyclophosphamide]"
  group: "zone 3"

[in] Which LD50 band matches O=P1(NCCCl)OCCCN1CCCl (stereo not drawn) [Ifosfamide] ?
[out] zone 3

[in] Similarly, CN(C)/N=N/c1[nH]cnc1C(N)=O [Dacarbazine] ?
[out] zone 3

[in] Similarly, O=c1[nH]cc(F)c(=O)[nH]1 [Fluorouracil] ?
[out] zone 3
